experiment: Inhibition of rabbit skeletal muscle MAPKAP kinase-1beta using KKRNRTLSVA as substrate in presence of [gamma-32P]-ATP; design: species or system Oryctolagus cuniculus
Could you please report measured pIC50 for the items listed next?
Answer as the number alone; pIC50 is minus log10 of concentration in mol/L.

Lookup: Requested field: pIC50. Item: CN(C)CCCn1cc(C2=C(c3c[nH]c4ccccc34)C(=O)NC2=O)c2ccccc21
Found: 7.30

Lookup: Cn1cc(C2=C(c3cn(CCCSC(=N)N)c4ccccc34)C(=O)NC2=O)c2ccccc21 [BISINDOLYLMALEIMIDE IX] ?
Found: 8.52

* * *

Give measured growth at 10 µM for each item. Keep answers brief.
test system: SR; assay: Cytotoxicity against human SR cells assessed as cell growth at 10 uM after 48 hrs by SRB assay relative to control; format: functional; conditions: read-out: Activity
Kindly answer with a numeric value in %, unit omitted.

Lookup: Report growth at 10 µM for O=C1C2=C(C(=O)N1O)c1cn(c3ccccc13)CCCCCCn1cc2c2ccccc21 please.
Found: 91.9

Lookup: What do we get for Cn1cc(C2=C(c3cn(CCCCCC#N)c4ccccc34)C(=O)N(O)C2=O)c2ccccc21 ?
Found: 67.2

Lookup: # repeat for CC(C)n1cc(C2=C(c3c[nH]c4ccccc34)C(=O)N(O)C2=O)c2ccccc21
Found: 85.7

Lookup: Can you check Cn1cc(C2=C(c3cn(CCCCCC(=O)O)c4ccccc34)C(=O)N(O)C2=O)c2ccccc21 next?
Found: 89.6

Lookup: Now try Cn1cc(C2=C(c3c[nH]c4ccccc34)C(=O)N(O)C2=O)c2ccccc21 .
Found: 30.9

* * *

biological target: CDK2/Cyclin A2 (Homo sapiens) (UniProt P24941+P20248); test: Inhibition of full length human CDK2/cyclin A assessed as residual activity at 10 uM using histone H1 as substrate in presence of [gamma-33P]ATP; format: protein-complex assay
measure: Activity (%)
Give the quantity in %, number only.

Lookup: Value lookup for Activity; key = Cn1cc(C2=C(c3cn(C)c4ccccc34)C(=O)N(O)C2=O)c2ccccc21
Found: 83

Lookup: Lookup O=C(O)CCCCCn1cc(C2=C(c3c[nH]c4ccccc34)C(=O)N(O)C2=O)c2ccccc21
Found: 66

Lookup: // next record Cn1cc(C2=C(c3c[nH]c4ccccc34)C(=O)N(O)C2=O)c2ccccc21
Found: 77

Lookup: Now consider CCn1cc(C2=C(c3cn(C)c4ccccc34)C(=O)N(O)C2=O)c2ccccc21 and answer again.
Found: 64

Lookup: Queued: Cn1cc(C2=C(c3cn(CCCCCC#N)c4ccccc34)C(=O)N(O)C2=O)c2ccccc21
Found: 64

* * *

I'd appreciate it if you could supply growth at 10 µM values for the items below.
test system: SW-620; test: Cytotoxicity against human SW620 cells assessed as cell growth at 10 uM after 48 hrs by SRB assay relative to control; type: functional; conditions: SW-620, 48 h, read-out: Activity
Output spec: scalar in %, unitless text.

Lookup: Need growth at 10 µM of Cn1cc(C2=C(c3cn(CCCCCC(=O)O)c4ccccc34)C(=O)N(O)C2=O)c2ccccc21 , thanks.
Found: 98.9

Lookup: Request: O=C1C2=C(C(=O)N1O)c1cn(c3ccccc13)CCCCCCn1cc2c2ccccc21
Found: 98.6

Lookup: Follow-up item: Cn1cc(C2=C(c3c[nH]c4ccccc34)C(=O)N(O)C2=O)c2ccccc21
Found: 87.7

* * *

target: Cyclin-dependent kinase 5/CDK5 activator 1 (Homo sapiens) (UniProt Q00535+Q15078); assay: Inhibition of recombinant full length human CDK5/p25 expressed in bacteria assessed as residual activity at 10 uM using histone H1 as substrate in presence of [gamma-33P]ATP
Sequence (Q00535 whole entry): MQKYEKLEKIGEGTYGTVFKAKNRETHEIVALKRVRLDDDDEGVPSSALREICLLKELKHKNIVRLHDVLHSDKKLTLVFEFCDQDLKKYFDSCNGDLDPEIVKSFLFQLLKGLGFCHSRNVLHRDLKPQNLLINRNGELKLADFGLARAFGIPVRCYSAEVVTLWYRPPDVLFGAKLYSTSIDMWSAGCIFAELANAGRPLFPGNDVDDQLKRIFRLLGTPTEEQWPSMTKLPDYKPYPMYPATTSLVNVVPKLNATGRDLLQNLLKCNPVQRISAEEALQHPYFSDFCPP
Sequence (Q15078 99-307 partner limits assumed): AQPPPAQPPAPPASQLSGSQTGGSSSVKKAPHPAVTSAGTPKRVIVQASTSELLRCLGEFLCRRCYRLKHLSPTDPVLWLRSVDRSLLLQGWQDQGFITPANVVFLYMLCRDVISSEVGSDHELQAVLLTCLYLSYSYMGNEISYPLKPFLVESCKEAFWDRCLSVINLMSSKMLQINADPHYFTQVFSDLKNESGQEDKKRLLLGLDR
For each record, check the reported Activity: if it is below 30% write true, else write false.

Lookup: Decide: Activity of CCn1cc(C2=C(c3cn(C(C)C)c4ccccc34)C(=O)N(O)C2=O)c2ccccc21 strictly below 30%?
Found: false

Lookup: Next molecule up: Cn1cc(C2=C(c3cn(CCCCCC(=O)O)c4ccccc34)C(=O)N(O)C2=O)c2ccccc21
Found: false

Lookup: # repeat for O=C1C2=C(C(=O)N1O)c1cn(c3ccccc13)CCCCCCn1cc2c2ccccc21
Found: false

Lookup: Continue with Cn1cc(C2=C(c3cn(C)c4ncccc34)C(=O)NC2=O)c2ccccc21
Found: true

Lookup: Also need N#CCCCCCn1cc(C2=C(c3cn(CCCCCC#N)c4ccccc34)C(=O)NC2=O)c2ccccc21 , thanks.
Found: false

* * *

target: Glycogen synthase kinase-3 (Sus scrofa, UniProt B2LUN4+I6LNT8); test: Inhibition of domestic porcine brain full length GSK-3alpha/beta using GS-1 as substrate in presence of [gamma-33P]ATP; set-up: species or system Sus scrofa domesticus
Assign IC50 to each entry below.
Just the number please, in µM, no unit attached.

Lookup: Record lookup: for Glycogen synthase kinase-3 (Sus scrofa, UniProt B2LUN4+I6LNT8), what IC50 belongs to CCn1cc(C2=C(c3cn(C(C)C)c4ccccc34)C(=O)N(O)C2=O)c2ccccc21 ?
Found: 0.4

Lookup: Now consider CC(C)n1cc(C2=C(c3c[nH]c4ccccc34)C(=O)N(O)C2=O)c2ccccc21 .
Found: 1.5

Lookup: One more compound: Cn1cc(C2=C(c3c[nH]c4ccccc34)C(=O)N(O)C2=O)c2ccccc21
Found: 0.2

Lookup: Quick one: CCn1cc(C2=C(c3cn(C)c4ccccc34)C(=O)N(O)C2=O)c2ccccc21
Found: 0.3

Lookup: Let us now turn to Cn1cc(C2=C(c3cn(C)c4ncccc34)C(=O)NC2=O)c2ccccc21
Found: 0.03

Lookup: Next up: N#CCCCCCn1cc(C2=C(c3cn(CCCCCC#N)c4ccccc34)C(=O)N(O)C2=O)c2ccccc21
Found: 0.75

Lookup: For O=C1C(c2c[nH]c3ccccc23)=C(c2c[nH]c3ncccc23)C(=O)N1O then?
Found: 4

Lookup: Same read-out for CC(C)n1cc(C2=C(c3cn(C)c4ccccc34)C(=O)N(O)C2=O)c2ccccc21 ?
Found: 0.2

Lookup: Could you do the same for Cn1cc(C2=C(c3cn(CCCCCC(=O)O)c4ccccc34)C(=O)N(O)C2=O)c2ccccc21 , please?
Found: 3.2

Lookup: Next record, please: N#CCCCCCn1cc(C2=C(c3cn(CCCCCC#N)c4ccccc34)C(=O)NC2=O)c2ccccc21
Found: 0.12

Lookup: And what about the compound O=C(O)CCCCCn1cc(C2=C(c3c[nH]c4ccccc34)C(=O)N(O)C2=O)c2ccccc21 ?
Found: 0.75

Lookup: Query Cn1cc(C2=C(c3cn(CCCCCC#N)c4ccccc34)C(=O)N(O)C2=O)c2ccccc21 next
Found: 0.27

Lookup: Subsequent entry: Cn1cc(C2=C(c3cn(C)c4ccccc34)C(=O)N(O)C2=O)c2ccccc21
Found: 3

* * *

system: OVCAR-3; test: Cytotoxicity against human OVCAR3 cells assessed as cell growth at 10 uM after 48 hrs by SRB assay relative to control; format: functional; details: OVCAR-3, 48 h, read-out: Activity
In plain terms, low growth at 10 µM, meaning strictly below 90%, gives Met, and everything else gives Not met.

Lookup: I'd appreciate it if you could check whether Cn1cc(C2=C(c3cn(CCCCCC(=O)O)c4ccccc34)C(=O)N(O)C2=O)c2ccccc21 has growth at 10 µM smaller than 90%.
Found: Not met

Lookup: Cn1cc(C2=C(c3cn(CCCCCC#N)c4ccccc34)C(=O)N(O)C2=O)c2ccccc21 , same question.
Found: Not met

Lookup: What do you have for CC(C)n1cc(C2=C(c3c[nH]c4ccccc34)C(=O)N(O)C2=O)c2ccccc21 ?
Found: Not met

Lookup: Same lookup for O=C1C2=C(C(=O)N1O)c1cn(c3ccccc13)CCCCCCn1cc2c2ccccc21 , please.
Found: Not met

Lookup: Please give the result for Cn1cc(C2=C(c3cn(C)c4ccccc34)C(=O)N(O)C2=O)c2ccccc21 too.
Found: Not met

Lookup: Try Cn1cc(C2=C(c3c[nH]c4ccccc34)C(=O)N(O)C2=O)c2ccccc21 next.
Found: Met

Lookup: Lookup O=C(O)CCCCCn1cc(C2=C(c3c[nH]c4ccccc34)C(=O)N(O)C2=O)c2ccccc21
Found: Not met

Lookup: Queued: N#CCCCCCn1cc(C2=C(c3cn(CCCCCC#N)c4ccccc34)C(=O)NC2=O)c2ccccc21
Found: Met

* * *

tested on: Hs-578T; test: Cytotoxicity against human Hs 578T cells assessed as cell growth at 10 uM after 48 hrs by SRB assay relative to control; type: functional; settings: read-out: Activity
measure: growth at 10 µM (%)
Answer format: numeric, % implied, no suffix.

Lookup: Notebook entry, Hs-578T assay: growth at 10 µM of Cn1cc(C2=C(c3cn(CCCCCC(=O)O)c4ccccc34)C(=O)N(O)C2=O)c2ccccc21 = ?
Found: 102

Lookup: Subsequent entry: CC(C)n1cc(C2=C(c3c[nH]c4ccccc34)C(=O)N(O)C2=O)c2ccccc21
Found: 111

Lookup: Try the compound N#CCCCCCn1cc(C2=C(c3cn(CCCCCC#N)c4ccccc34)C(=O)NC2=O)c2ccccc21
Found: 59.7

Lookup: Field entry: O=C1C2=C(C(=O)N1O)c1cn(c3ccccc13)CCCCCCn1cc2c2ccccc21
Found: 97.2

Lookup: Can you handle CC(C)n1cc(C2=C(c3cn(C)c4ccccc34)C(=O)N(O)C2=O)c2ccccc21 next?
Found: 91.2

Lookup: Do the same for Cn1cc(C2=C(c3c[nH]c4ccccc34)C(=O)N(O)C2=O)c2ccccc21 please
Found: 96.3

Lookup: Item: Cn1cc(C2=C(c3cn(CCCCCC#N)c4ccccc34)C(=O)N(O)C2=O)c2ccccc21
Found: 93.5

Lookup: What about this compound? Cn1cc(C2=C(c3cn(C)c4ccccc34)C(=O)N(O)C2=O)c2ccccc21
Found: 95.8

Lookup: What about O=C(O)CCCCCn1cc(C2=C(c3c[nH]c4ccccc34)C(=O)N(O)C2=O)c2ccccc21 ?
Found: 103
